# Test system: human non-small cell lung cancer NCI-H1975
# test method notes: Biological Example 7: in vivo xenograft model of human non-small cell lung cancer NCI-H1975
# Set-up: species or system Balb/c-nu nude mice
# test conditions: nude mice, 0.8 mg/kg i.v. qw×3
experimental readout: Final body weight change (%)

Reported Final body weight change (%) of CC[C@H](C)[C@@H]([C@@H](CC(=O)N1CCC[C@H]1[C@H](OC)[C@@H](C)C(=O)N[C@H](C)[C@@H](O)c1ccccc1)OC)N(C)C(=O)[C@@H](NC(=O)[C@H](C(C)C)[N+](C)(CC)Cc1ccc(O[C@@H]2O[C@H](C(=O)[O-])[C@@H](O)[C@H](O)[C@H]2O)cc1OCc1cn(CCCCCC(=O)Nc2ccc(-c3ccc(/N=N/c4ccc5c(S(=O)(=O)[O-])cc(S(=O)(=O)[O-])c(N)c5c4O)c(C)c3)cc2C)nn1)C(C)C.[Na+].[Na+] (stereo partly shown) : 5.8%

----------
# System: HepG2 (human liver cancer cell)
# test method notes: In vitro inhibitory effect against human tumor cells (SRB)
# Type: cell-based
# test conditions: HepG2, 72 h, With addition of βGU (1 µg/well), 3 days
Sorting guide: entries reporting IC50 beneath 4 nM go in the True pile, the rest go in the False pile.

Solved entries:
1) CC[C@H](C)[C@@H]([C@@H](CC(=O)N1CCC[C@H]1[C@H](OC)[C@@H](C)C(=O)N[C@H](C)[C@@H](OCc1ccc(O[C@@H]2O[C@H](C(=O)[O-])[C@@H](O)[C@H](O)[C@H]2O)cc1OCc1cn(CCCCCC(=O)Nc2ccc(-c3ccc(/N=N/c4ccc5c(S(=O)(=O)[O-])cc(S(=O)(=O)[O-])c(N)c5c4O)c(C)c3)cc2C)nn1)c1ccccc1)OC)N(C)C(=O)[C@@H](NC(=O)[C@H](C(C)C)N(C)C)C(C)C.[Na+].[Na+].[Na+] : False
2) CC[C@H](C)[C@@H]([C@@H](CC(=O)N1CCC[C@H]1[C@H](OC)[C@@H](C)C(=O)N[C@H](C)[C@@H](O)c1ccccc1)OC)N(C)C(=O)[C@@H](NC(=O)[C@H](C(C)C)[N+](C)(C)Cc1ccc(O[C@@H]2O[C@H](C(=O)[O-])[C@@H](O)[C@H](O)[C@H]2O)cc1OCc1cn(CCOCCC(=O)Nc2ccc(-c3ccc(/N=N/c4ccc5c(S(=O)(=O)[O-])cc(S(=O)(=O)[O-])c(N)c5c4O)c(C)c3)cc2C)nn1)C(C)C.[Na+].[Na+] : True
3) CC[C@H](C)[C@@H]([C@@H](CC(=O)N1CCC[C@H]1[C@H](OC)[C@@H](C)C(=O)N[C@H](C)[C@@H](O)c1ccccc1)OC)N(C)C(=O)[C@@H](NC(=O)[C@H](C(C)C)[N+](C)(C)Cc1ccc(O[C@@H]2O[C@H](C(=O)[O-])[C@@H](O)[C@H](O)[C@H]2O)cc1OCc1cn(CCCCCC(=O)Nc2ccc(-c3ccc(/N=N/c4ccc5c(S(=O)(=O)[O-])cc(S(=O)(=O)[O-])c(N)c5c4O)c(C)c3)cc2C)nn1)C(C)C.[Na+].[Na+] : False
4) CC[C@H](C)[C@@H]([C@@H](CC(=O)N1CCC[C@H]1[C@H](OC)[C@@H](C)C(=O)N[C@H](C)[C@@H](O)c1ccccc1)OC)N(C)C(=O)[C@@H](NC(=O)[C@H](C(C)C)[N+](C)(CC)Cc1ccc(O[C@@H]2O[C@H](C(=O)[O-])[C@@H](O)[C@H](O)[C@H]2O)cc1OCc1cn(CCCCCC(=O)Nc2ccc(-c3ccc(/N=N/c4ccc5c(S(=O)(=O)[O-])cc(S(=O)(=O)[O-])c(N)c5c4O)c(C)c3)cc2C)nn1)C(C)C.[Na+].[Na+] (stereo partly shown) : True

# input Strictly below 4 nM: is that where IC50 of CC[C@H](C)[C@@H]([C@@H](CC(=O)N1CCC[C@H]1[C@H](OC)[C@@H](C)C(=O)N[C@H](C)[C@@H](O)c1ccccc1)OC)N(C)C(=O)[C@@H](NC(=O)[C@H](C(C)C)[N+](C)(CC)Cc1ccc(O[C@@H]2O[C@H](C(=O)[O-])[C@@H](O)[C@H](O)[C@H]2O)cc1OCc1cn(CCCOCC(=O)Nc2ccc(-c3ccc(/N=N/c4ccc5c(S(=O)(=O)[O-])cc(S(=O)(=O)[O-])c(N)c5c4O)c(C)c3)cc2C)nn1)C(C)C.[Na+].[Na+] (stereo partly shown) sits?
# output True
